METHOD_SUMMARY: Particle size measurement (dynamic light scattering) and visual solubility in aqueous solutions; also: unit not given here
APPLIED_CONDITIONS: 2 mg net mass/ml in 1× PBS, pH 6.9 to 7.5
Marks after values point to notes of the source that are not given here.
ATTRIBUTE_MEASURED: particle size, PBS

Some entries whose results are on file:
>  <SUBSTANCE>
Ac-LRLLHAPLALPAHLLRLL-NH2 [Peptide 7, Ac-LRLLHAPLALPAHLLRLL-NH2]

>  <ATTRIBUTE_MEASURED>
particle size, PBS

>  <RESULT>
INS.

$$$$
>  <SUBSTANCE>
Ac-RRLLPAPLALPAPLLRRL-NH2 [Peptide 1, Ac-RRLLPAPLALPAPLLRRL-NH2]

>  <ATTRIBUTE_MEASURED>
particle size, PBS

>  <RESULT>
2.39*

$$$$
>  <SUBSTANCE>
Ac-RRLLPAHLALHAPLLRRL-NH2 [Peptide 14, Ac-RRLLPAHLALHAPLLRRL-NH2]

>  <ATTRIBUTE_MEASURED>
particle size, PBS

>  <RESULT>
1.5*

$$$$
>  <SUBSTANCE>
Ac-RRLLHALLALLAHLLRRL-NH2 [Peptide 11, Ac-RRLLHALLALLAHLLRRL-NH2]

>  <ATTRIBUTE_MEASURED>
particle size, PBS

>  <RESULT>
INS.

$$$$

Quick request: particle size, PBS for each listed item, please.
1. Ac-RRLLHAHLALHAHLLRRL-NH2 [Peptide 16, Ac-RRLLHAHLALHAHLLRRL-NH2]
2. Ac-RRLLPAALALAAPLLRRL-NH2 [Peptide 2, Ac-RRLLPAALALAAPLLRRL-NH2]
3. Ac-RRLLHAPLALPAHLLRRL-NH2 [Peptide 12, Ac-RRLLHAPLALPAHLLRRL-NH2]

Out:
1. 1.4*
2. 4.52*
3. 1.35*
